Data provenance: patent US20260125382A1

The following compounds are listed with their measured Enzyme degradation CDK9 (% remaining) @ 1 μM values.
Target: CDK9 (Homo sapiens)
Construct: endogenous in cells; host or cells: MDA-MB-231
Experiment: CDK protein degradation activity (Western blotting), CDK9
Format: cell-based
Conditions: MDA-MB-231 cells, 1 μM, 16 hours, Western blot

# compound, measured_target, result_value
measured = [
    ("O=C1CCC(n2nnc3ccc(N4CC(N5CCN(c6ccc(Nc7ncnc8c7ncn8[C@H]7C[C@@H](NC(=O)Cc8ccccc8)C7)cc6)CC5)C4)cc3c2=O)C(=O)N1 (stereo partly shown) [Compound 346]", "CDK9 (Homo sapiens)", "30/30/30%"),
]

Looking up O=C1CC[C@H](N2C(=O)c3ccc(N4CC(N5CCC6(CC5)CC(N5CCN(c7ccc(Nc8ncnc9c8ncn9C8CC(NC(=O)Cc9ccccc9)C8)cc7)CC5)C6)C4)cc3C2=O)C(=O)N1 (stereo partly shown) [Compound 271] , I see its Enzyme degradation CDK9 (% remaining) @ 1 μM listed as 10%

Quick note, Enzyme degradation CDK9 (% remaining) @ 1 μM for Cc1cccc(C(=O)N[C@H]2C[C@@H](n3cnc4c(NC5CCN(CCC6CCN(C(=O)COc7ccc8c(c7)C(=O)N(C7CCC(=O)NC7=O)C8=O)CC6)CC5)ncnc43)C2)n1 (stereo partly shown) [Compound 31] landed at 0%

The compound listed as O=C1CC[C@@H](c2cccc(OCC(=O)N3CC(N4CCC5(CC4)CC(N4CCN(c6ccc(Nc7ncnc8c7ncn8[C@H]7C[C@@H](NC(=O)Cc8ccccc8)C7)cc6)CC4)C5)C3)c2)C(=O)N1 [Compound 274] shows Enzyme degradation CDK9 (% remaining) @ 1 μM equal to 30/30/30%

Memo: N#Cc1cccc(C(=O)N[C@H]2C[C@@H](n3cnc4c(Nc5ccc(N6CCN(CC7CCN(c8ccc9c(c8)CN(C8CCC(=O)NC8=O)C9=O)CC7)CC6)cc5)ncnc43)C2)n1 (stereo partly shown) [Compound 441] , reported Enzyme degradation CDK9 (% remaining) @ 1 μM: 10/10/10%

Lab book: Enzyme degradation CDK9 (% remaining) @ 1 μM of O=C1CC[C@H](N2C(=O)c3ccc(N4CCC5(CC4)CC(N4CCN(c6ccc(Nc7ncnc8c7ncn8C7CC(NC(=O)c8c(Cl)cccc8Cl)C7)cc6)CC4)C5)cc3C2=O)C(=O)N1 (stereo partly shown) [Compound 315] noted as 0/0/0%

Noted for O=C1CC[C@H](N2C(=O)C=C(Nc3cccc(CC(=O)N4CCC5(CC4)CC(N4CCN(c6ccc(Nc7ncnc8c7ncn8[C@H]7C[C@@H](NC(=O)Cc8ccccc8)C7)cc6)CC4)C5)c3)C2=O)C(=O)N1 [Compound 192] : its Enzyme degradation CDK9 (% remaining) @ 1 μM reads 20%

Consider Cc1cccc(C(=O)N[C@H]2C[C@@H](n3cnc4c(NC5CCN(CCCN6CCN(C(=O)CNc7cccc8c7C(=O)N([C@H]7CCC(=O)NC7=O)C8=O)CC6)CC5)ncnc43)C2)n1 [Compound 38] . Its measured Enzyme degradation CDK9 (% remaining) @ 1 μM is 0/0/0%

Enzyme degradation CDK9 (% remaining) @ 1 μM reported for this compound Cc1cccc(C(=O)NC2CC(n3cnc4c(NCc5ccc(N6CCN(CC7CCN(C(=O)CNc8ccc9c(c8)C(=O)N([C@H]8CCC(=O)NC8=O)C9=O)CC7)CC6)cc5)ncnc43)C2)n1 (stereo partly shown) [Compound 153] : 0/0/0%

Looking up O=C1CC[C@@H](c2cccc(OCC(=O)N3CCC(CN4CCC(c5ccc(Nc6ncnc7c6ncn7C6CC(NC(=O)Cc7ccccc7)C6)cc5)CC4)CC3)c2)C(=O)N1 (stereo partly shown) [Compound 282] , I found its Enzyme degradation CDK9 (% remaining) @ 1 μM recorded as 0/0/0%

* * *

Target: CDK9 (Homo sapiens, UniProt P50750)
Construct: endogenous in cells; host or cells: MDA-MB-231
Sequence (P50750 whole entry): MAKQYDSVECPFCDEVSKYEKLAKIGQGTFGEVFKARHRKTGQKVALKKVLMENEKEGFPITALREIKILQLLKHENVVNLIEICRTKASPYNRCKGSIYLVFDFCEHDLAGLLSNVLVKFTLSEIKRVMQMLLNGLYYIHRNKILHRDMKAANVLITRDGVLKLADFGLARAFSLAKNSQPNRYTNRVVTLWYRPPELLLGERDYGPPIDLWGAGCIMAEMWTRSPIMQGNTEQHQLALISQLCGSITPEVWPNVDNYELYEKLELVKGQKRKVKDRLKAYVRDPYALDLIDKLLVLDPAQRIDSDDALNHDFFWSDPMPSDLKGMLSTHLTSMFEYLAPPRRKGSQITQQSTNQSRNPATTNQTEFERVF
Assay: CDK protein degradation activity (Western blotting), CDK9
Assay type: cell-based
Conditions: MDA-MB-231 cells, 1 μM, 16 hours, Western blot
Mark t for Enzyme degradation CDK9 (% remaining) @ 1 μM under 10%, f if at or over.

# input Below 10% on Enzyme degradation CDK9 (% remaining) @ 1 μM? Entry Cc1cccc(C(=O)NC2CC(n3cnc4c(NCC5CCN(CC6CCN(c7ccc8c(c7)C(=O)N([C@@H]7CCC(=O)NC7=O)C8=O)CC6)CC5)ncnc43)C2)n1 (stereo partly shown)
# output f

# input Hi there! Is Enzyme degradation CDK9 (% remaining) @ 1 μM for O=C1CC[C@H](N2C(=O)c3cccc(OCC(=O)N4CCC(OCCN5CCN(c6ccc(Nc7ncnc8c7ncn8C7CC(NC(=O)Cc8ccccc8)C7)cc6)CC5)CC4)c3C2=O)C(=O)N1 (stereo partly shown) below 10%, do you know?
# output f

# input Item O=C1CC[C@H](N2C(=O)c3cccc(OCC(=O)N4CCC(CN5CCC(CNc6ncnc7c6ncn7C6CC(NC(=O)c7c(Cl)cccc7Cl)C6)CC5)CC4)c3C2=O)C(=O)N1 (stereo partly shown) : Enzyme degradation CDK9 (% remaining) @ 1 μM beneath 10%, strictly?
# output f

# input Would you kindly verify if Enzyme degradation CDK9 (% remaining) @ 1 μM of Cc1cccc(C(=O)N[C@H]2C[C@@H](n3cnc4c(NCc5cccc(OCC6CCN(C(=O)CNc7ccc8c(c7)C(=O)N(C7CCC(=O)NC7=O)C8=O)CC6)c5)ncnc43)C2)n1 (stereo partly shown) is strictly less than 10%?
# output t

# input Determine if O=C1CCC(c2ccc(OCC(=O)N3CC(CN4CCC5(CC4)CC(N4CCN(c6ccc(Nc7ncnc8c7ncn8[C@H]7C[C@@H](NC(=O)Cc8ccccc8)C7)cc6)CC4)C5)C3)cc2)C(=O)N1 (stereo partly shown) shows Enzyme degradation CDK9 (% remaining) @ 1 μM strictly lower than 10%.
# output f

# input Please determine if "O=C1CC[C@H](N2C(=O)c3ccc(N4CCC5(CC4)CC(N4CCC(c6ccc(Nc7ncnc8c7ncn8[C@H]7C[C@@H](NC(=O)Cc8ccccc8)C7)cc6)CC4)C5)cc3C2=O)C(=O)N1" is below 10% in terms of Enzyme degradation CDK9 (% remaining) @ 1 μM.
# output t

* * *

Target: CDK9 (Homo sapiens, UniProt P50750)
Construct: endogenous in cells; host or cells: MDA-MB-231
Assay: CDK protein degradation activity (Western blotting), CDK9
Format: cell-based
Settings: MDA-MB-231 cells, 1 μM, 16 hours, Western blot
Description: In order to evaluate the CDK protein degradation activity of the compounds according to the present invention, the following experiment was conducted. MDA-MB-231 cells were seeded at 5×10^5 cells per well in a 6-well plate. The next day, the compounds were treated in each well to achieve final concentrations of 100 nM, 1 μM, and 10 μM. […] Cell lysates were quantified and separated by size using sodium dodecyl sulfate-polyacrylamide gel electrophoresis (SDS-PAGE). […]
measured_endpoint: Enzyme degradation CDK9 (% remaining) @ 1 μM (%)
Return type: number; implicit unit %.

Here are 4 compounds together with their reported answers.
# compound, units_of_measure, result_value
measured = [
    ("O=C1CCN(c2coc3cc(C(=O)NC[C@H]4CC[C@H](CN5CCN(c6ccc(Nc7ncnc8c7ncn8[C@H]7C[C@@H](NC(=O)Cc8ccccc8)C7)cc6)CC5)CC4)ccc23)C(=O)N1 [Compound 199]", "%", 30),
    ("Cc1cccc(C(=O)N[C@H]2C[C@@H](n3cnc4c(NC5CCN(CCOC6CCN(C(=O)COc7ccc8c(c7)C(=O)N([C@H]7CCC(=O)NC7=O)C8=O)CC6)CC5)ncnc43)C2)n1 [Compound 43]", "%", 0),
    ("O=C1CC[C@H](n2nnc3ccc(N4CCN(C5CCN(c6ccc(Nc7ncnc8c7ncn8C7CC(NC(=O)Cc8ccccc8)C7)cc6)CC5)CC4)cc3c2=O)C(=O)N1 (stereo partly shown) [Compound 357]", "%", 30),
    ("O=C1CC[C@H](N2C(=O)c3cccc(N4CCC5(CC4)CC(N4CCC(c6ccc(Nc7ncnc8c7ncn8C7CC(NC(=O)Cc8ccccc8)C7)cc6)CC4)C5)c3C2=O)C(=O)N1 (stereo partly shown) [Compound 297]", "%", 0),
]

Let us examine a further case.
Item: Cc1cccc(C(=O)NC2CC(n3cnc4c(Nc5ccc(N6CCN(C(=O)COc7cccc8c7C(=O)N([C@H]7CCC(=O)NC7=O)C8=O)CC6)cc5)ncnc43)C2)n1 (stereo partly shown) [Compound 85] | Enzyme degradation CDK9 (% remaining) @ 1 μM: 40

* * *

Target: CDK2 (Homo sapiens, UniProt P24941)
Construct: endogenous in cells; host or cells: MDA-MB-231
Experiment: CDK protein degradation activity (Western blotting), CDK2
Type: cell-based
Conditions: MDA-MB-231 cells, 10 μM, 16 hours, Western blot
measured_endpoint: Enzyme degradation CDK2 (% remaining) @ 10 μM (%)
Respond numerically; units are % and should not be typed.

Check out these entries, answers already filled in.
# compound, result_value
data = [
    ("O=C1CC[C@@H](c2cccc(OCC(=O)N3CCC(CN4CCN(c5ccc(Nc6ncnc7c6ncn7C6CC(NC(=O)Cc7ccccc7)C6)cc5)CC4)CC3)c2)C(=O)N1 (some centres unmarked)", 40),
    ("O=C1CCC(N2C(=O)c3ccc(N4CCC(CCN5CCN(c6ccc(Nc7ncnc8c7ncn8[C@H]7C[C@@H](NC(=O)Cc8ccccc8)C7)cc6)CC5)CC4)cc3C2=O)C(=O)N1 (some centres unmarked)", 0),
    ("COc1ccc(C(=O)N2CC(CN3CCC4(CC3)CC(N3CCN(c5ccc(Nc6ncnc7c6ncn7[C@H]6C[C@@H](NC(=O)Cc7ccccc7)C6)cc5)CC3)C4)C2)cc1N1CCC(=O)NC1=O", 30),
]

// sample Cc1cccc(C(=O)N[C@H]2C[C@@H](n3cnc4c(NCc5cccc(N6CCN(CC7CCN(C(=O)COc8cccc9c8C(=O)N(C8CCC(=O)NC8=O)C9=O)CC7)CC6)c5)ncnc43)C2)n1 (some centres unmarked) , its Enzyme degradation CDK2 (% remaining) @ 10 μM was 40
